Exercise: for every item that follows, state its recorded Tmax.
# test_summary: Comparison of pharmacokinetics in Beagle dogs (oral capsule of crude drug powder, LC-MS/MS plasma concentration)
# Format: in vivo
# run_parameters: both sexes, dog, 30 mg crude drug powder capsule, single period
Give a bare numeral; the unit h is implied.

Reported Tmax ( CCOc1cc([C@@H](CS(C)(=O)=O)N2C(=O)c3cccc(NC(C)=O)c3C2=O)ccc1OC [Form B] ) = 1.7

Reported Tmax ( CCOc1cc(C(CS(C)(=O)=O)N2C(=O)c3cccc(NC(C)=O)c3C2=O)ccc1OC (single isomer, unassigned; (+)) [Form II] ) = 9

* * *

# test_summary: In vivo pharmacokinetic comparison study in SD rats (gavage, LC-MS/MS plasma concentration)
# run_parameters: SD (Sprague-Dawley), rat, plasma, po; male rats, gavage 10 mg/kg suspension; read-out: area under the curve AUC0-t
readout_name: AUC(0-t)

Reported AUC(0-t) ( CCOc1cc(C(CS(C)(=O)=O)N2C(=O)c3cccc(NC(C)=O)c3C2=O)ccc1OC (single isomer, unassigned; (+)) [Form II] ) = 446 ng·h/mL

Reported AUC(0-t) ( CCOc1cc([C@@H](CS(C)(=O)=O)N2C(=O)c3cccc(NC(C)=O)c3C2=O)ccc1OC [Form B] ) = 530 ng·h/mL

* * *

# test_summary: In vivo pharmacokinetic comparison study in SD rats (gavage, LC-MS/MS plasma concentration)
# run_parameters: female, SD (Sprague-Dawley), rat, plasma, po, 10 mg/kg, female rats, gavage 10 mg/kg suspension; read-out: time to peak Tmax (median)
# Experimental: Twelve SD rats weight 200-220 g with half males and half females were divided randomly into 2 groups (named as group A and group B). According to the administration route and dosage amounts provided in FDA references, the two crystalline forms were given by gavage to investigate their pharmacokinetic behaviors in rats. The dosage amounts of the two forms are both 10 mg/kg (solvent is 1% carboxymethylcellulose). […]
Exercise: for every item that follows, state its recorded Tmax.
Give a bare numeral; the unit h is implied.

Reported Tmax ( CCOc1cc(C(CS(C)(=O)=O)N2C(=O)c3cccc(NC(C)=O)c3C2=O)ccc1OC (single isomer, unassigned; (+)) [Form II] ) = 6

Reported Tmax ( CCOc1cc([C@@H](CS(C)(=O)=O)N2C(=O)c3cccc(NC(C)=O)c3C2=O)ccc1OC [Form B] ) = 4

* * *

Exercise: for every item that follows, state its recorded Cmax.
# test_summary: In vivo pharmacokinetic comparison study in SD rats (gavage, LC-MS/MS plasma concentration)
# run_parameters: SD (Sprague-Dawley), rat, plasma, po; female rats, gavage 10 mg/kg suspension; read-out: peak concentrations Cmax
Please report the result as a number followed by the unit.

Reported Cmax ( CCOc1cc([C@@H](CS(C)(=O)=O)N2C(=O)c3cccc(NC(C)=O)c3C2=O)ccc1OC [Form B] ) = 904 ng/mL

Reported Cmax ( CCOc1cc(C(CS(C)(=O)=O)N2C(=O)c3cccc(NC(C)=O)c3C2=O)ccc1OC (single isomer, unassigned; (+)) [Form II] ) = 906 ng/mL

* * *

# test_summary: In vivo pharmacokinetic comparison study in SD rats (gavage, LC-MS/MS plasma concentration)
# run_parameters: both sexes, SD (Sprague-Dawley), rat, plasma, po; SD rats, males and females together, gavage 10 mg/kg suspension; read-out: peak concentrations Cmax
readout_name: Cmax
Please report the result as a number followed by the unit.

Reported Cmax ( CCOc1cc(C(CS(C)(=O)=O)N2C(=O)c3cccc(NC(C)=O)c3C2=O)ccc1OC (single isomer, unassigned; (+)) [Form II] ) = 507 ng/mL

Reported Cmax ( CCOc1cc([C@@H](CS(C)(=O)=O)N2C(=O)c3cccc(NC(C)=O)c3C2=O)ccc1OC [Form B] ) = 523 ng/mL
